assay: Antioxidant activity assessed as DPPH scavenging activity measured after 3 mins by spectrophotometric method; assay type: physicochemical
pEC50: −log10 of the molar value.
measured-property: pEC50

                                    compound  measured_property  qualifier_sign  obs_value
 0  CCOP(=O)(OCC)C(C)(C)/[N+]([O-])=C/c1ccc(NC(C)=O)cc1              pEC50               <       3.00
 1  Cc1c(C)c2c(c(C)c1O)CCC(C)(C(=O)O)O2 (stereo not given)              pEC50               =       4.70
 2  CCOP(=O)(OCC)C(C)(C)/[N+]([O-])=C/c1ccc(O)c(O)c1              pEC50               =       4.66
 3  CCOP(=O)(OCC)C(C)(C)/[N+]([O-])=C/c1cc(O)cc(O)c1              pEC50               <       3.00
 4                 O=C(O)/C=C/c1ccc(O)c(O)c1              pEC50               =       4.77
 5  CCOP(=O)(OCC)C(C)(C)/[N+]([O-])=C/c1ccccc1O              pEC50               <       3.00
 6  CCOP(=O)(OCC)C(C)(C)/[N+]([O-])=C/c1cccc([N+](=O)[O-])c1              pEC50               <       3.00
 7       COc1cc(/C=C/C(=O)O)ccc1O [FERULATE]              pEC50               =       4.21
 8  CCOP(=O)(OCC)C(C)(C)/[N+]([O-])=C/c1cc(OC)c(O)c(OC)c1              pEC50               =       3.72
 9  CCOP(=O)(OCC)C(C)(C)/[N+]([O-])=C/c1cccc(O)c1              pEC50               <       3.00
10  CCOC(=O)c1ccc(/C=[N+](\[O-])C(C)(C)P(=O)(OCC)OCC)cc1              pEC50               <       3.00
11  CCOP(=O)(OCC)C(C)(C)/[N+]([O-])=C/c1ccc(O)c(OC)c1              pEC50               =       3.60
12  O=c1c(O)c(-c2ccc(O)c(O)c2)oc2cc(O)cc(O)c12              pEC50               =       4.89
13  CCOP(=O)(OCC)C(C)(C)/[N+]([O-])=C/c1ccccc1C(F)(F)F              pEC50               <       3.00
14  CCOP(=O)(OCC)C(C)(C)/[N+]([O-])=C/c1ccc(O)cc1              pEC50               <       3.00

* * *

Entries and their IC10 values follow.
test: Cytotoxicity against BAEC assessed as reduction in cell viability measured after 24 hrs by MTT assay; design: species or system Bos taurus; settings: cattle
measured-property: IC10

                                    molecule  obs_value
 0  CCOP(=O)(OCC)C(C)(C)/[N+]([O-])=C/c1ccc(C(=O)O)cc1    1300 µM
 1  CCOP(=O)(OCC)C(C)(C)/[N+]([O-])=C/c1ccccc1    1100 µM
 2  CCOP(=O)(OCC)C(C)(C)/[N+]([O-])=C/c1cc(OC)c(O)c(OC)c1    2600 µM
 3                   O=C(O)c1cc(O)c(O)c(O)c1   < 100 µM
 4            CC(C)(C)/[N+]([O-])=C/c1ccccc1    2400 µM
 5  CCOP(=O)(OCC)C(C)(C)/[N+]([O-])=C/c1ccccc1C(F)(F)F     400 µM
 6  COc1cc(/C=C/C(=O)O)cc(OC)c1O [SINAPINATE]    1200 µM
 7  CCOC(=O)c1ccc(/C=[N+](\[O-])C(C)(C)P(=O)(OCC)OCC)cc1     400 µM
 8  CCOP(=O)(OCC)C(C)(C)/[N+]([O-])=C/c1cc(O)cc(O)c1     600 µM
 9  CCOP(=O)(OCC)C(C)(C)/[N+]([O-])=C/c1cc(O)c(O)c(O)c1     200 µM
10       COc1cc(/C=C/C(=O)O)ccc1O [FERULATE]     800 µM

* * *

Listing of entries alongside the reported IC50.
tested on: A549; experiment: Cytotoxicity against human A549 cells assessed as reduction in cell viability measured after 48 hrs by luminescence-based ATP assay; conditions: A549, 48 h
measured-property: IC50 (µM)

>>> df
                                   molecule  unit_of_measure  obs_value
0  CCOP(=O)(OCC)C(C)(C)/[N+]([O-])=C/c1ccccc1[N+](=O)[O-]               µM       1400
1  CCOP(=O)(OCC)C(C)(C)/[N+]([O-])=C/c1ccccc1C(F)(F)F               µM       2700
2  CCOP(=O)(OCC)C(C)(C)/[N+]([O-])=C/c1ccc([N+](=O)[O-])cc1               µM       1000
3            CC(C)(C)/[N+]([O-])=C/c1ccccc1               µM       9600
4  CCOP(=O)(OCC)C(C)(C)/[N+]([O-])=C/c1ccc(O)c(O)c1               µM       1900
5  COc1cc(/C=C/C(=O)O)cc(OC)c1O [SINAPINATE]               µM       5700

* * *

test system: A549; experiment: Cytotoxicity against human A549 cells assessed as reduction in cell viability measured after 48 hrs by MTT assay; format: cell-based; settings: A549, 48 h
Readings of log10(IC50) for the listed molecules
measured-property: log10(IC50) (log10 of the value in mM)

                              record_smiles  measured_property  obs_value
0            CC(C)(C)/[N+]([O-])=C/c1ccccc1        log10(IC50)       1.03
1  CCOP(=O)(OCC)C(C)(C)/[N+]([O-])=C/c1ccccc1O        log10(IC50)       0.95
2  CCOP(=O)(OCC)C(C)(C)/[N+]([O-])=C/c1ccccc1[N+](=O)[O-]        log10(IC50)       0.11
3  CCOP(=O)(OCC)C(C)(C)/[N+]([O-])=C/c1ccc([N+](=O)[O-])cc1        log10(IC50)       0.08
4  CCOP(=O)(OCC)C(C)(C)/[N+]([O-])=C/c1cc(O)c(O)c(O)c1        log10(IC50)      -0.15
